Where these numbers come from: patent US9926275B2

- TARGET: CB1 receptor (Homo sapiens, UniProt P21554)
- Sequence (P21554 whole entry): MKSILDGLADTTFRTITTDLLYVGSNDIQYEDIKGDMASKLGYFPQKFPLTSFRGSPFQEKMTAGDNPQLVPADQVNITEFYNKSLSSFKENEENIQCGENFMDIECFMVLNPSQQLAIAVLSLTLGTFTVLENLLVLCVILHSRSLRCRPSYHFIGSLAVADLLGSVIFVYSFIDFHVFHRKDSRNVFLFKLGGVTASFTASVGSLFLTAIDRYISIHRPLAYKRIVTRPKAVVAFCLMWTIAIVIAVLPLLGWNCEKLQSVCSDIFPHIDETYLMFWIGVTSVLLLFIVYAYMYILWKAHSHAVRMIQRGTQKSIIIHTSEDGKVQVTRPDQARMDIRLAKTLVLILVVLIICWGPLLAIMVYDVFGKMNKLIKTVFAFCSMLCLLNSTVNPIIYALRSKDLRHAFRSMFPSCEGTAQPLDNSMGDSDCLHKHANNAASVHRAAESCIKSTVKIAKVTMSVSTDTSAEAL
- ASSAY_INFO: β-arrestin recruitment in CNR1 PathHunter cell line, allosteric modulation of CP55,940 response
- Assay type: cell-based
- CONDITIONS: Table 1; CP55,940 as agonist
READOUT_TYPE: β-arrestin % inhibition

• O=C(Nc1cccc(-c2cccc(N3CCCC3)n2)c1)Nc1ccccc1Cl [Compound 10d] = 105%
• O=C(Nc1cccc(-c2cccc(N3CCCC3)n2)c1)Nc1ccc(Cl)cc1CCCCOC1CCCCO1 (stereo not shown) [Compound 23a] = 117%
• O=C(Nc1ccc(Cl)cc1)Nc1ccc(-c2cccc(N3CCCC3)n2)cc1 [Compound 51] = 109%
• O=C(Nc1cccc(-c2cccc(N3CCCC3)n2)c1)Nc1ccc(Cl)c(CCCCOC2CCCCO2)c1 (stereo not shown) [Compound 23b] = 121%
• O=C(Nc1cccc(Cl)c1)Nc1cccc(-c2cccc(N3CCCC3)n2)c1 [Compound 10c] = 128%
• O=C(Nc1cccc(-c2cccc(N3CCCC3)n2)c1)Nc1cccc2ccccc12 [Compound 10w] = 109%
• O=C(Nc1cccc(-c2cccc(N3CCCC3)n2)c1)Nc1ccc(Cl)c(I)c1 [Compound 19b] = 120%
• S=C(Nc1ccc(Cl)cc1)Nc1cccc(-c2cccc(N3CCCC3)n2)c1 [Compound 32] = 110%
• O=C(Nc1cccc(-c2cccc(N3CCCC3)n2)c1)Nc1ccccc1Oc1ccccc1 [Compound 10m] = 80%
• O=C(Nc1cccc(-c2cccc(N3CCCC3)n2)c1)Nc1ccc(Cl)cc1C#CCCOC1CCCCO1 (stereo not shown) [Compound 21a] = 73%
• O=C(Nc1ccccc1)Nc1cccc(-c2cccc(N3CCCC3)n2)c1 [Compound 10q] = 135%
• Clc1ccc(-c2nnc(Nc3cccc(-c4cccc(N5CCCC5)n4)c3)o2)cc1 [Compound 45] = 70%
• O=C(Nc1cccc(-c2cccc(N3CCCC3)n2)c1)Nc1ccccc1F [Compound 10u] = 107%
• COC(=O)c1ccccc1NC(=O)Nc1cccc(-c2cccc(N3CCCC3)n2)c1 [Compound 15] = 24%
• Cc1cc(Cl)ccc1OC(=O)Nc1cccc(-c2cccc(N3CCCC3)n2)c1 [Compound 13c] = 39%
• O=C(Nc1ccc(Cl)cc1)Nc1ccccc1-c1cccc(N2CCCC2)n1 [Compound 55] = 61%
• Cc1ccccc1NC(=O)Nc1cccc(-c2cccc(N3CCCC3)n2)c1 [Compound 10p] = 104%
• COc1ccccc1NC(=O)Nc1cccc(-c2cccc(N3CCCC3)n2)c1 [Compound 10j] = 93%
• O=C(Nc1cccc(-c2cccc(N3CCCC3)n2)c1)Nc1ccc(Cl)c(C#CCCOC2CCCCO2)c1 (stereo not shown) [Compound 21b] = 111%
• Clc1ccc(Nc2nnc(-c3cccc(-c4cccc(N5CCCC5)n4)c3)o2)cc1 [Compound 42] = 31%
• Cc1cccc(NC(=O)Nc2cccc(-c3cccc(N4CCCC4)n3)c2)c1 [Compound 10o] = 125%
• O=C(Nc1cccc(-c2cccc(N3CCCC3)n2)c1)Nc1ccc(Cl)cc1CCCCO [Compound 24a] = 126%
• O=C(Nc1ccc(Cl)cc1)Nc1cccc(-c2cccc(N3CCNCC3)n2)c1 [Compound 67b] = 110%
• O=C(Nc1ccc(Cl)cc1)Nc1cccc(-c2ccc(N3CCCC3)nc2)c1 [Compound 61] = 105%
• O=C(Nc1ccc(C(F)(F)F)cc1)Nc1cccc(-c2cccc(N3CCCC3)n2)c1 [Compound 10e] = 128%
• O=C(Nc1cccc(-c2cccc(N3CCCC3)n2)c1)Nc1ccc(Cl)c(C#CCCO)c1 [Compound 22b] = 123%
• O=C(Nc1ccc(Cl)cc1)Nc1cccc(-c2cccc(N3CCOCC3)n2)c1 [Compound 67a] = 111%
• O=C(Nc1cccc(-c2cccc(N3CCCC3)n2)c1)N1CCc2ccccc2C1 [Compound 10y] = 50%
• O=C(Nc1ccc(Oc2ccccc2)cc1)Nc1cccc(-c2cccc(N3CCCC3)n2)c1 [Compound 10k] = 123%
• N#C/N=C(/Nc1ccc(Cl)cc1)Nc1cccc(-c2cccc(N3CCCC3)n2)c1 [Compound 35] = 69%
• O=C(Nc1ccc(F)cc1)Nc1cccc(-c2cccc(N3CCCC3)n2)c1 [Compound 10t] = 108%
• O=C(Nc1cccc(-c2cccc(N3CCCC3)n2)c1)Nc1ccccc1C(=O)O [Compound 16] = 1.5%
• O=C(Nc1cccc(-c2cccc(N3CCCC3)n2)c1)Nc1ccc2ccccc2c1 [Compound 10x] = 119%
• O=C(Nc1cccc(-c2cccc(N3CCCC3)n2)c1)Nc1ccc(Cl)cc1I [Compound 19a] = 118%

###

- TARGET: UniProt:P21554
- ASSAY_INFO: β-arrestin recruitment in CNR1 PathHunter cell line, allosteric modulation of CP55,940 response
- Assay type: cell-based
- CONDITIONS: Table 2, covalent allosteric modulators; read-out: β-arrestin activity EMax (%)
Emax values for the compounds below.
READOUT_TYPE: Emax (%)

- O=C(Nc1ccc(C(=O)c2ccccc2)cc1)Nc1cccc(-c2cccc(N3CCCC3)n2)c1: 106
- [N-]=[N+]=Nc1ccc(NC(=O)Nc2cccc(-c3cccc(N4CCCC4)n3)c2)cc1: 138
- CCc1c(C(=O)NCCc2ccc(N3CCCCC3)cc2)[nH]c2ccc(N=[N+]=[N-])cc12: 106
- O=C(Nc1ccc(I)cc1)Nc1cccc(-c2cccc(N3CCCC3)n2)c1: 105

###

- TARGET: CB1 receptor (Homo sapiens, UniProt P21554)
- ASSAY_INFO: β-arrestin recruitment in CNR1 PathHunter cell line, allosteric modulation of CP55,940 response
- Format: cell-based
- CONDITIONS: Table 1; CP55,940 as agonist; read-out: β-arrestin EC50
pEC50: −log10 of the molar value.
READOUT_TYPE: pEC50

• N#C/N=C(/Nc1ccc(Cl)cc1)Nc1cccc(-c2cccc(N3CCCC3)n2)c1 = 5.51
• Cc1cc(Cl)ccc1OC(=O)Nc1cccc(-c2cccc(N3CCCC3)n2)c1 [Compound 13c] = 5.51
• O=C(Nc1ccc(Cl)cc1)Nc1cccc(-c2cccc(N3CCCC3)c2)c1 = 7.57
• O=C(Nc1cccc(-c2cccc(N3CCCC3)n2)c1)Nc1ccc(Cl)c(CCCCOC2CCCCO2)c1 (stereo not shown) [Compound 23b] = 6.11

###

- TARGET: CB1 receptor (Homo sapiens, UniProt P21554)
- ASSAY_INFO: DiscoveRx HitHunter cAMP XS+ assay in cAMP Hunter cell line, allosteric modulation of CP55,940 response
- Format: cell-based
- CONDITIONS: Table 1; preincubation with compound, then CP55,940 challenge; 20 μM forskolin
READOUT_TYPE: cAMP % inhibition

• Cc1cc(Cl)ccc1NC(=O)Nc1cccc(-c2cccc(N3CCCC3)n2)c1 [Compound 10s] = 18%
• O=C(Nc1cccc(-c2cccc(N3CCCC3)n2)c1)Oc1ccc(Cl)cc1 [Compound 13b] = 3.5%
• Cc1cc(Cl)ccc1OC(=O)Nc1cccc(-c2cccc(N3CCCC3)n2)c1 [Compound 13c] = 24%
• O=C(Nc1ccc(Cl)cc1)Nc1cccc(-c2cccc(N3CCOCC3)n2)c1 [Compound 67a] = 88%

###

- TARGET: CB1 receptor (Homo sapiens)
- ASSAY_INFO: β-arrestin recruitment in CNR1 PathHunter cell line, allosteric modulation of CP55,940 response
- Type: cell-based
- CONDITIONS: Table 1; CP55,940 as agonist; read-out: β-arrestin EC50
pEC50: −log10 of the molar value.
READOUT_TYPE: pEC50

* O=C(Nc1ccc(Cl)cc1)Oc1cccc(-c2cccc(N3CCCC3)n2)c1 | 5.06
* O=C(Nc1ccc(Cl)cc1)Nc1cccc(-c2cccc(N3CCNCC3)n2)c1 [Compound 67b] | 7.60
* O=C(Nc1ccc(Cl)cc1)Nc1cccc(-c2cccc(N3CCOCC3)n2)c1 [Compound 67a] | 6.91
* O=C(Nc1cccc(Cl)c1)Nc1cccc(-c2cccc(N3CCCC3)n2)c1 [Compound 10c] | 6.59
* O=C(Nc1ccc(Cl)cc1)Nc1cccc(-c2ccnc(N3CCCC3)c2)c1 | 7.11
* O=C(Nc1cccc(-c2cccc(N3CCCC3)n2)c1)Nc1ccccc1Cl [Compound 10d] | 5.66
* O=C(Nc1ccccc1)Nc1cccc(-c2cccc(N3CCCC3)n2)c1 [Compound 10q] | 6.96
* CN(C(=O)N(C)c1cccc(-c2cccc(N3CCCC3)n2)c1)c1ccc(Cl)cc1 | 5.63
* O=C(Nc1cccc(-c2cccc(N3CCCC3)n2)c1)Nc1ccc(Cl)cc1CCCCOC1CCCCO1 (stereo not drawn) [Compound 23a] | 5.96
* O=C(Nc1ccc(Cl)cc1)Nc1ccc(-c2cccc(N3CCCC3)n2)cc1 | 6.69
* COc1ccccc1NC(=O)Nc1cccc(-c2cccc(N3CCCC3)n2)c1 [Compound 10j] | 5.91
* O=C(Nc1cccc(-c2cccc(N3CCCC3)n2)c1)Nc1ccc(Cl)c(I)c1 [Compound 19b] | 6.90
* O=C(Nc1ccc(F)cc1)Nc1cccc(-c2cccc(N3CCCC3)n2)c1 [Compound 10t] | 8.15
* S=C(Nc1ccc(Cl)cc1)Nc1cccc(-c2cccc(N3CCCC3)n2)c1 | 6.56
* O=C(Nc1cccc(-c2cccc(N3CCCC3)n2)c1)Nc1cccc2ccccc12 [Compound 10w] | 5.90
* O=C(Nc1ccc(Cl)cc1)Nc1cccc(-c2ccc(N3CCCC3)nc2)c1 | 6.06
* O=C(Nc1cccc(-c2cccc(N3CCCC3)n2)c1)N1CCc2ccccc2C1 [Compound 10y] | 5.27
* O=C(Nc1ccc(C(F)(F)F)cc1)Nc1cccc(-c2cccc(N3CCCC3)n2)c1 [Compound 10e] | 7.29
* O=C(Nc1cccc(-c2cccc(N3CCCC3)n2)c1)Nc1cccc(C(F)(F)F)c1 [Compound 10f] | 6.66
* Cc1cccc(NC(=O)Nc2cccc(-c3cccc(N4CCCC4)n3)c2)c1 [Compound 10o] | 6.13
* O=C(Nc1cccc(Oc2ccccc2)c1)Nc1cccc(-c2cccc(N3CCCC3)n2)c1 [Compound 10l] | 7.07
* COC(=O)c1ccccc1NC(=O)Nc1cccc(-c2cccc(N3CCCC3)n2)c1 | 5.07
* Cc1cc(Cl)ccc1NC(=O)Nc1cccc(-c2cccc(N3CCCC3)n2)c1 [Compound 10s] | 6.68
* O=C(Nc1cccc(-c2cccc(N3CCCC3)n2)c1)Nc1ccc(Cl)c(C#CCCOC2CCCCO2)c1 (stereo not drawn) [Compound 21b] | 6.68
* O=C(Nc1cccc(-c2cccc(N3CCCC3)n2)c1)Nc1ccccc1Oc1ccccc1 [Compound 10m] | 6.10
* O=C(Nc1ccc(I)cc1)Nc1cccc(-c2cccc(N3CCCC3)n2)c1 [Compound 10b] | 7.57
* O=C(Nc1cccc(-c2cccc(N3CCCC3)n2)c1)NC1CCCCC1 [Compound 10z] | 6.48
* Clc1ccc(Nc2nnc(-c3cccc(-c4cccc(N5CCCC5)n4)c3)o2)cc1 | 5.23
* O=C(Nc1cccc(-c2cccc(N3CCCC3)n2)c1)Nc1ccc(Cl)cc1CCCCO [Compound 24a] | 6.56
